- System Tested: Apoptosis regulator Bcl-2 (Homo sapiens, UniProt P10415)
- Sequence (P10415 whole entry): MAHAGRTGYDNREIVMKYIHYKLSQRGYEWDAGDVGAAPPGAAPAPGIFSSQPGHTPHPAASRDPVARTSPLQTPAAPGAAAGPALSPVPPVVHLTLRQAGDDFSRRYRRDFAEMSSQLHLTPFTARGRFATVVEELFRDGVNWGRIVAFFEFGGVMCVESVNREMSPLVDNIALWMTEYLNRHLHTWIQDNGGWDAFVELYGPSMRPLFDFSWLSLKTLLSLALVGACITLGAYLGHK
- Measurement Protocol: PubChem AID 950
- Experimental Conditions: inactive by the depositor's call
Reported Endpoint: log10 EC50 (log10 of the value in µM)
A difference of one corresponds to tenfold EC50; all values are log10 with EC50 in µM.

Solved cases below.
O=C(Nc1ccc(N2CCOCC2)cc1)Nc1ccc2nc(-c3ccco3)c(-c3ccco3)nc2c1 : 0.95
CCc1ccc(/C=C/C(=O)c2cc(Br)ccc(=O)c2O)cc1 : 1.88
c1ccc(-c2nc(N3CCCCCC3)c3ccccc3n2)nc1 [SMR000046752] : 1.30
Nc1ccc(C2=Nc3cccc4cccc(c34)N2)cc1 [SMR000175908] : 1.26
Cc1cc(C)nc(SCc2cc(=O)c(OC(=O)c3ccc(Cl)c([N+](=O)[O-])c3)co2)n1 : 0.93
Cc1ccc(C)c(/C=C/C(=O)c2ccccc(=O)c2O)c1 : 1.29
C/C(=C\c1ccco1)C1Nc2cccc3cccc(c23)N1 [MLS000055728] : 1.15
CCOC(=O)c1ccc(Nc2nc(C(=O)OCC)nc3ccccc23)cc1 : 0.18

# returns recorded log10 EC50 (system: Apoptosis regulator Bcl-2 (Homo sapiens, UniProt P10415)) for CCN(CC)C(=O)COC(=O)c1cc(-c2ccco2)nc2ccccc12 [SMR000377201]
0.69

# returns recorded log10 EC50 (system: Apoptosis regulator Bcl-2 (Homo sapiens, UniProt P10415)) for CCOC(=O)C1=C(Cc2ccc(OC)cc2)C(=O)c2ccccc2C1=O [SMR000136995]
1.13

---

- System Tested: Apoptosis regulator Bcl-2 (Homo sapiens, UniProt P10415)
- Measurement Protocol: PubChem AID 950
- Experimental Conditions: inactive by the depositor's call
Reported Endpoint: EC50 (µM)
Lab book: enter the figure in µM, no units written.

Value lookup for EC50; key = Cc1cc2n(c1)CCn1c(C)ccc1-2
15.9

Value lookup for EC50; key = O=C(NC1=C(Nc2ccc(Cl)cc2)C(=O)c2ccccc2C1=O)c1ccccc1
17.9

Value lookup for EC50; key = Clc1nss/c1=N\c1ccc(Br)cc1
49.8

Value lookup for EC50; key = COc1ccc(CCNC(=O)c2ccc3nc(-c4ccco4)c(-c4ccco4)nc3c2)cc1OC
13.6

Value lookup for EC50; key = CNc1ccc(Br)cc(C(=O)/C=C/c2cc(OC)ccc2OC)c1=O
8.97

---

Reported EC50 values are given for each entry in this list.
- System Tested: Apoptosis regulator Bcl-2 (Homo sapiens)
- Measurement Protocol: PubChem AID 950
- Experimental Conditions: inactive by the depositor's call
Lab book: enter the figure in µM, no units written.

Cc1nc2ncccn2c1-c1csc(Nc2ccccc2)n1 : 8.93

Value lookup for EC50; key = O=C(/C=C/c1ccccc1Cl)c1ccccc(=O)c1O
15

Value lookup for EC50; key = C#CCn1cc(C=C2C(=O)c3ccccc3C2=O)c2ccccc21 [SMR000196125]
13.8

Value lookup for EC50; key = COc1ccc2nc(-c3ccco3)c(-c3ccco3)nc2c1 [2,3-di-2-furyl-6-methoxyquinoxaline]
14.4

Value lookup for EC50; key = O=C1c2ccccc2-c2onc3ccc(NCc4ccco4)c1c23 [MLS000080234]
37.8

---

- System Tested: Apoptosis regulator Bcl-2 (Homo sapiens, UniProt P10415)
- Measurement Protocol: PubChem AID 950
Reported EC50 values are given for each entry in this list.
Lab book: enter the figure in µM, no units written.

Solved cases below.
CC(=O)c1ccc(NC(=O)c2ccc3nc(-c4ccco4)c(-c4ccco4)nc3c2)cc1 : 8.54
COc1cccc2c(SCC(=O)NN=Cc3ccc(O)cc3O)cc(C)nc12 : 24.1
CC(=NNC(=O)c1cc(O)c(O)c(O)c1)c1ccc([N+](=O)[O-])cc1 : 5.96

Value lookup for EC50; key = CN1CCc2cccc3c2[C@@H]1Cc1ccc(O)c(O)c1-3
16.1

Value lookup for EC50; key = O=C1/C(=C\c2ccc(-c3ccccc3Cl)o2)SC(=S)N1CC1CCCO1 (stereo not given)
2.33

---

- System Tested: Apoptosis regulator Bcl-2 (Homo sapiens, UniProt P10415)
- Measurement Protocol: PubChem AID 950
- Experimental Conditions: inactive by the depositor's call
Reported Endpoint: EC50 (µM)
Lab book: enter the figure in µM, no units written.

Solved cases below.
CN1CCN(C2=C(Cl)C(=O)C(c3cnc(N4CCCCC4)s3)=C(Cl)C2=O)CC1 : 0.16
COC(=O)c1c(C(=O)OC)c2cccc3cc(-c4ccccc4)c4ccc1c4n32 [SMR000161417] : 1.8
CCOC(=O)c1c(O)nc2ccc(Cl)c3c2c1-c1ccccc1C3=O [MLS000704595] : 7.65
COc1cc2nc(=S)[nH]c(NCCc3ccc(S(N)(=O)=O)cc3)c2cc1OC [MLS000674601] : 0.54

# returns recorded EC50 (system: Apoptosis regulator Bcl-2 (Homo sapiens, UniProt P10415)) for O=C1C(=Cc2ccco2)NC(=S)N1c1ccccc1
27.2

# returns recorded EC50 (system: Apoptosis regulator Bcl-2 (Homo sapiens, UniProt P10415)) for O=C(Nc1cccc(C(F)(F)F)c1)c1ccc2nc(-c3ccco3)c(-c3ccco3)nc2c1 [SMR000142217]
10.9

# returns recorded EC50 (system: Apoptosis regulator Bcl-2 (Homo sapiens, UniProt P10415)) for CNc1ccc(Br)cc(C(=O)/C=C/c2cccc(OC)c2)c1=O
55

# returns recorded EC50 (system: Apoptosis regulator Bcl-2 (Homo sapiens, UniProt P10415)) for Cc1ccc(C(=O)/C=C/c2ccc(-c3ccc(C)cc3)o2)cc1
3.08

# returns recorded EC50 (system: Apoptosis regulator Bcl-2 (Homo sapiens, UniProt P10415)) for COc1cc(C2Nc3cccc4cccc(c34)N2)ccc1OC(C)=O
11.4

# returns recorded EC50 (system: Apoptosis regulator Bcl-2 (Homo sapiens, UniProt P10415)) for O=C(Nc1ccc2nc(-c3ccco3)c(-c3ccco3)nc2c1)NC1CC1 [SMR000118524]
9.26

---

- System Tested: Apoptosis regulator Bcl-2 (Homo sapiens)
- Measurement Protocol: PubChem AID 950
- Experimental Conditions: inactive by the depositor's call
Reported Endpoint: pEC50
Note on units: pEC50 is unitless, being -log10 of a concentration expressed in mol/L.

Cc1cc(-c2csc(N)n2)c(C)n1C : 4.33
c1ccc(C2=Nc3cccc4cccc(c34)N2)cc1 : 4.58
COCCCn1c(N)c(C(=O)Nc2sc3c(c2C(=O)OC)CCCC3)c2nc3ccccc3nc21 [MLS000595323] : 5.71
COc1ccc(/C=C/C(=O)c2cc(Br)ccc(=O)c2O)cc1 [MLS000702099] : 4.47
Cc1cccc(OCC(=O)NCC(=O)NN=Cc2cc(Br)ccc2OCc2ccccc2)c1 : 5.24
CSc1nnc2c3cc(C)ccc3n(Cc3ccccc3)c2n1 [SMR000046397] : 4.53
c1coc(C2=Nc3cccc4cccc(c34)N2)c1 [2-(2-furanyl)-1H-perimidine] : 5.01
Cc1ccc(C=NNC(=O)CSc2nnc(-c3ccc(Cl)cc3)n2-c2ccccc2)o1 [SMR000218122] : 5.07

Value lookup for pEC50; key = Clc1nc(NCc2cccnc2)nc(N2CCOCC2)n1 [MLS000121154]
4.60

Value lookup for pEC50; key = CN(C)c1ncc(C2=C(Cl)C(=O)C(N3CCCC3)=C(Cl)C2=O)s1
6.68

---

- System Tested: UniProtKB P10415
- Measurement Protocol: PubChem AID 950
Reported Endpoint: pEC50
Note on units: pEC50 is unitless, being -log10 of a concentration expressed in mol/L.

Solved cases below.
OCCN1CCN(CCCc2c3c(cc4c2CCC4)CCC3)CC1 [MLS000698424] : 4.75
O=C(NCc1ccccc1)c1ccc2nc(-c3ccco3)c(-c3ccco3)nc2c1 : 5.13
Clc1ccc2c(N=NCc3ccccc3Br)ccnc2c1 [MLS000336087] : 5.04
O=C1c2ccccc2-c2onc3ccc(NCCCn4ccnc4)c1c23 [SMR000044769] : 5.39
CCN1/C(=C/C(C)=C/c2sc3ccccc3[n+]2CC)Sc2ccccc21 [SMR000354813] : 4.65

Value lookup for pEC50; key = CN(C)[C@@H]1C(=O)C(C(=O)NCN2CCCC2)C(=O)[C@@]2(O)C(=O)C3C(=O)c4c(O)cccc4[C@@](C)(O)C3CC12 (stereo partly specified)
4.63

Value lookup for pEC50; key = CCOC(=O)C1CCN(C(=O)Nc2ccc3nc(-c4ccco4)c(-c4ccco4)nc3c2)CC1 [MLS000113285]
5.18

---

- System Tested: Apoptosis regulator Bcl-2 (Homo sapiens)
- Measurement Protocol: PubChem AID 950
- Experimental Conditions: inactive by the depositor's call
Reported Endpoint: pEC50
Note on units: pEC50 is unitless, being -log10 of a concentration expressed in mol/L.

Solved cases below.
COc1ccc(-n2c(=O)c3ccccc3c3ccccc3c2=O)c(OC)c1 : 4.87
CN(N=Cc1ccncc1)C1=NS(=O)(=O)c2ccccc21 : 5.61
O=C(NC1=C(NC2CCS(=O)(=O)C2)C(=O)c2ccccc2C1=O)c1ccccc1 (configuration not stated) : 4.71
O=C(/C=C\c1ccc(-c2ccccc2)o1)c1ccccc1 : 4.46
O=C(Nc1ccccc1)c1ccc2nc(-c3ccco3)c(-c3ccco3)nc2c1 : 4.44

Value lookup for pEC50; key = COc1ccc(C2=Nn3c(nnc3-c3ccco3)SC2)cc1OC
5.92

Value lookup for pEC50; key = Fc1ccc(C2=Nc3cccc4cccc(c34)N2)cc1 [MLS000687139]
5.03

Value lookup for pEC50; key = COC(=O)CSc1ncnc2c1sc1nc(-c3ccco3)c3c(c12)CC(C)(C)OC3 [MLS000039339]
4.56

Value lookup for pEC50; key = Cc1ccc(NC2=C(NC(=O)c3ccccc3)C(=O)c3ccccc3C2=O)cc1Cl [MLS000392290]
5.36

Value lookup for pEC50; key = Cc1ccc(-c2ccc(/C=C3\SC(N4CCOCC4)=NC3=O)o2)cc1
4.35

Value lookup for pEC50; key = O=C(NCc1ccccn1)c1ccc2nc(-c3ccco3)c(-c3ccco3)nc2c1
4.85

Value lookup for pEC50; key = O=C(c1ccccc1)c1ccc2nc(-c3ccco3)c(-c3ccco3)nc2c1
4.80

Value lookup for pEC50; key = c1ccc(Nc2cccc(Nc3ccccc3)n2)cc1 [N,N'-diphenyl-2,6-pyridinediamine]
5.55

Value lookup for pEC50; key = CCOC(=O)c1nc(Nc2ccc(C(=O)OC)cc2)c2ccccc2n1
4.82

Value lookup for pEC50; key = CCN1C(=O)/C(=C/C=C2\C=CN(CC)c3ccccc32)SC1=S
4.45

Value lookup for pEC50; key = CCOc1ccccc1CNc1ccc(O)cc1
5.44

Value lookup for pEC50; key = O=C(Nc1ccc2nc(-c3ccco3)c(-c3ccco3)nc2c1)N1CCN(c2ccccn2)CC1
5.05

Value lookup for pEC50; key = N#Cc1cc(-c2ccccc2)nn1-c1ccccc1
4.40

Value lookup for pEC50; key = CC(C)(C)NC(=O)COc1ccc(CNc2ccc3[nH]c(O)nc3c2)cc1
5.33

Value lookup for pEC50; key = O=C1c2ccccc2-c2onc3ccc(N4CCCC4)c1c23 [SMR000279741]
4.55

Value lookup for pEC50; key = CN(C)c1ccc(C=C2C(=O)NC(=O)NC2=O)cc1[N+](=O)[O-]
4.79

Value lookup for pEC50; key = Cc1ccc(-c2ccc(/C=C/C(=O)c3ccccc3)o2)cc1
5.07
